Biological target: Full-length (FL)-PRMT5-MEP50 enzyme complex (Homo sapiens, UniProt O14744)
Construct: Full-length (FL)-PRMT5-MEP50 enzyme complex (recombinant proteins from baculovirus-transfected Sf21 cells: FL-PRMT5; MW=73837 kDa and FL-MEP50; MW=38614); made in house; host or cells: baculovirus-transfected Sf21 cells
Sequence (O14744 whole entry): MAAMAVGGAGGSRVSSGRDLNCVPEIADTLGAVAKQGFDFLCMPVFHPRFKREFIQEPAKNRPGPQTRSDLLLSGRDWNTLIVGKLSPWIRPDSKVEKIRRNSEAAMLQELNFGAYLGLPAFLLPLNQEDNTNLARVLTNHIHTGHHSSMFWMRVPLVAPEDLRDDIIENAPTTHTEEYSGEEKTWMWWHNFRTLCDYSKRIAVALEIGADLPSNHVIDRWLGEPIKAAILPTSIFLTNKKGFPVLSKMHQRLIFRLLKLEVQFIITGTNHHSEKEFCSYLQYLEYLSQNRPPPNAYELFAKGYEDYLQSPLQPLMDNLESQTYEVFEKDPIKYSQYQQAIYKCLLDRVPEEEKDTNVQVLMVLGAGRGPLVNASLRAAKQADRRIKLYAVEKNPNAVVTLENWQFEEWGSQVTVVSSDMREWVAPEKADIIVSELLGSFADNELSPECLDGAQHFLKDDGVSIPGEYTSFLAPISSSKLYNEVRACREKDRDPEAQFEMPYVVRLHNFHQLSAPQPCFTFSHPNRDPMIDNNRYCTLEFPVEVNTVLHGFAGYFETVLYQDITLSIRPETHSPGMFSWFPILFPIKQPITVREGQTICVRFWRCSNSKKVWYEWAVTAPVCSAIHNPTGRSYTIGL
Sequence (Q9BQA1 whole entry partner): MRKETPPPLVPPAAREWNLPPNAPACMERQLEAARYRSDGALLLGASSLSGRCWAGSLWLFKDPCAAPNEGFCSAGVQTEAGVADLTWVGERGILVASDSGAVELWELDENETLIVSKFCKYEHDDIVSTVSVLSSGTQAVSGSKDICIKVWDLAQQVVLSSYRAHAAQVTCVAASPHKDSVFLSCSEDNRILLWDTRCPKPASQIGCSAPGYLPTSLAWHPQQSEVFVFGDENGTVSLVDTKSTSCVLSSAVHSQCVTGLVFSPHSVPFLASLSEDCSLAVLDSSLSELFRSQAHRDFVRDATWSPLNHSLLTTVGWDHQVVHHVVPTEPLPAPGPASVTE
Test: PRMT5-MEP50 Enzyme Methylation Assay (Version A)
Format: biochemical
Conditions: single EC50 = 4 parameter single site sigmoidal fit; EC50 1 = first value of 7 parameter biphasic fit; read-out: Enzyme Methylation Assay Version A (EC50 or EC50 1)
Mark criterion met only when EC50 stays strictly below 1 nM. Values equal to the cut-off are criterion not met.

Lab log: compare recorded EC50 with 1 nM; is it strictly lower for Cc1ccc(C(=O)N2CC[C@]3(Cc4ccccc4CN3)[C@H](O)C2)c(Cl)n1 ?
criterion not met

Lab log: compare recorded EC50 with 1 nM; is it strictly lower for O=C(c1cn2ncc(Br)cc2n1)N1CC[C@]2(Cc3ccccc3CN2)[C@H](O)C1 ?
criterion not met

Lab log: compare recorded EC50 with 1 nM; is it strictly lower for CCC1Oc2ccc(C(=O)N3CC[C@]4(Cc5ccccc5CN4)[C@H](O)C3)cc2NC1=O (single isomer, unassigned) [Example 105] ?
criterion met

Lab log: compare recorded EC50 with 1 nM; is it strictly lower for COC(C)c1cc(C(F)F)cn2cc(C(=O)N3CC[C@]4(Cc5ccccc5CN4)[C@H](O)C3)nc12 (single isomer, unassigned) [Example 80] ?
criterion not met

Lab log: compare recorded EC50 with 1 nM; is it strictly lower for Cc1ccc(C(=O)N2CC[C@]3(Cc4ccccc4CN3)[C@H](O)C2)c(C2CC2)n1 ?
criterion not met

Lab log: compare recorded EC50 with 1 nM; is it strictly lower for CO[C@H](C)c1cc(-c2ccnn2C(C)C)cn2cc(C(=O)N3CC[C@]4(Cc5ccccc5CN4)[C@H](O)C3)nc12 ?
criterion not met

====

Reported values of EC50 for individual entries
Test system: symmetric dimethylation of arginine (SDMA) of PRMT5 substrates in MCF-7 cells
Assay: PRMT5 Cell Target Engagement (TE) Assay
Assay type: cell-based
Conditions: 3 days treatment, SDMA high content imaging
Give the value, in units of nM, as a plain number.

In the examples that follow, each entry is paired with its recorded EC50.
{"columns": ["molecule", "target_system", "uom", "EC50"],
 "data": [
  ["CC(=O)N1CCC(Nc2cc(C(=O)N3CC[C@]4(Cc5ccccc5CN4)[C@H](O)C3)ccn2)C(F)(F)C1 (single isomer, unassigned) [Example 97]", "symmetric dimethylation of arginine (SDMA) of PRMT5 substrates in MCF-7 cells", "nM", 216],
  ["CC1CC(C(F)(F)F)Cn2cc(C(=O)N3CC[C@]4(Cc5ccccc5CN4)[C@H](O)C3)nc21 (single isomer, unassigned) [Example 167]", "symmetric dimethylation of arginine (SDMA) of PRMT5 substrates in MCF-7 cells", "nM", 194]
]}

Note down EC50 recorded for COC(C)c1cc(C)c2nc(C(=O)N3CC[C@]4(Cc5ccccc5CN4)[C@H](O)C3)cn2c1 (single isomer, unassigned) [Example 123]
11.8

Note down EC50 recorded for CC1CC1c1cnc2nc(C(=O)N3CC[C@]4(Cc5ccccc5CN4)[C@H](O)C3)cn2c1 (single isomer, unassigned) [Example 74]
8.37

Note down EC50 recorded for COC(C)c1ccc2nc(C(=O)N3CC[C@]4(Cc5ccccc5CN4)[C@H](O)C3)cn2c1 (single isomer, unassigned) [Example 23]
46.4
